- TEST SYSTEM: MMP-2 (Homo sapiens, UniProt P08253)
- Sequence (P08253 110-446 limits assumed): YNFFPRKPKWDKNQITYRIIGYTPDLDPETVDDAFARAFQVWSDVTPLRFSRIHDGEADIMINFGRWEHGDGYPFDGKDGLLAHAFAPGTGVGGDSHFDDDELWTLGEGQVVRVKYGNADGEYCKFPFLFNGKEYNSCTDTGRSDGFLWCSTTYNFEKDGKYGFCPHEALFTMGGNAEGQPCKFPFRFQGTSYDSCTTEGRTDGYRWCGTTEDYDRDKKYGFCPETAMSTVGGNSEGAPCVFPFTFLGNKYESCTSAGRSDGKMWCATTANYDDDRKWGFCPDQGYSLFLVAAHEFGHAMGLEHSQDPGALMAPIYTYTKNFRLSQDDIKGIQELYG
VALUE KIND: pIC50
// returns pIC50 (minus log10 of molar concentration), number only

Under MMP-2 (Homo sapiens, UniProt P08253): pIC50 value of Cc1cc(CCC[C@H](CC(=O)O)C(=O)N[C@H](C(=O)N[C@H](C)c2ccccc2)C(C)(C)C)ccc1-c1ccccc1 [Example 1] ?
4.97
